system: TK-10 renal; test: NCI-60 one-dose screen, 48 h (100 = growth as untreated, 0 = no growth, -100 = all killed); conditions: 10 µM unless noted
This is part of a sample that, as a whole, favours compounds with a hit. Of some 83,000 tested, about 20% had one in any assay. Active and inactive are the calls of the source. How the source made its calls: active means growth percent below 10; inactive means the rest.
Let's look at some compounds and their measured growth.

{"columns": ["compound", "reported endpoint", "endpoint value"],
 "data": [
  ["CCOC(=O)c1cc(C(=O)c2ccc(Br)cc2)n2ccc(/C=C/c3cc[n+](CC(=O)c4ccc(OC)cc4)cc3)cc12", "growth", "116% (inactive)"],
  ["COc1ccc(Cc2cnc(NC(=O)c3ccc4c(c3)OCCO4)s2)cc1", "growth", "41% (inactive)"]
]}

Query block: Item "COc1cc2oc(-c3cccc(C(=O)Nc4ccc(Br)cc4)c3)cc(=O)c2c(OC)c1OC" : provide growth
Result block: 62.5% (inactive)

Query block: Item "C/C(=N\NC(=O)CSc1nc2ccccc2c(=O)n1CCc1ccc(S(N)(=O)=O)cc1)c1ccccn1" : provide growth
Result block: 34.5% (inactive)

Query block: Item Cn1c(N2NC(=O)C(N=Nc3ccc(S(N)(=O)=O)cc3)C2=O)nc(-c2ccco2)c(C#N)c1=O (stereo not drawn) : provide growth
Result block: 131% (inactive)

Query block: Item "CCOC(=O)[C@@H](C)C[C@H](Cc1ccccc1)NC(=O)c1csc([C@@H](C[C@H](C(C)C)N(C)C(=O)[C@@H](NC(=O)[C@H]2C[C@H](O[Si](C)(C)C(C)(C)C)CCN2C)C(C)C)OC(C)=O)n1" : provide growth
Result block: 12.1% [9.25 µM] (inactive)

Query block: Item "COc1cc(-c2n/c(=C\c3c(O)[nH]c4ccc(Cl)cc34)cc3c2=Nc2ccccc2-3)ccc1F" : provide growth
Result block: 1.18% (active)

Query block: Item O=C(C1CCC1)N1N=C(c2ccc(-n3ccc(C(F)(F)F)n3)cc2)CC1c1ccc[nH]1 (stereo not drawn) : provide growth
Result block: 89.1% (inactive)

Query block: Item COc1cc(/C=N/NC(=O)c2cnn3c2NC(c2ccccc2)C3)ccc1OCc1ccccc1 (stereo not drawn) : provide growth
Result block: -0.854% (active)

Query block: Item "C[C@H]1[C@H](C)CC[C@]2(C(=O)NCC#CCN3CCN(C)CC3)CC[C@]3(C)C(=CC[C@@H]4[C@@]5(C)Cc6c([nH]c7ccccc67)C(C)(C)[C@@H]5CC[C@]43C)[C@H]12" : provide growth
Result block: 88.8% (inactive)

Query block: Item "COCc1cnccc1NC1CCCCCC1" : provide growth
Result block: 94.1% (inactive)

Query block: Item "N#Cc1c(NCc2ccccc2I)sc2c1CCCCC2" : provide growth
Result block: 109% (inactive)

Query block: Item "O=C(/C=C/c1ccc(Cl)cc1)c1ccc(NC(=O)N2CCN(c3cc4c(cc3F)c(=O)c(C(=O)O)cn4C3CC3)CC2)cc1" : provide growth
Result block: 107% (inactive)

----------
test system: U251 CNS; test: NCI-60 one-dose screen, 48 h; settings: 10 µM unless noted
Compounds without any hit were thinned out: in the full panel of roughly 83,000, 20% have a hit. The source made the active and inactive calls. The calls were made as follows: active = growth percent below 10; inactive = the rest.
Give your call using only these classes: T for active, F for inactive

# count of solved cases: 6
{"columns": ["compound", "assigned class"],
 "data": [
  ["COc1cc(CC(=O)c2ccc(O)c(OC)c2)ccc1O", "F"],
  ["O=C1Nc2cc(Cl)ccc2/C1=C\\c1c(-c2ccc(F)cc2)nc2ccccn12", "F"],
  ["C#Cc1cccc(NC(=O)Nc2cccc(NC(=O)CCl)c2)c1", "T"],
  ["O=C(Nc1ncc(Cc2cc(Cl)ccc2Cl)s1)c1cccs1", "F"],
  ["Cc1ccc(CNc2c3ccccc3nc3cc(NC(=O)CCN4CCCC4)ccc23)cc1", "T"],
  ["COC1=CC(=O)c2ccccc2C1=O", "F"]
]}

Query block: Please state the recorded outcome for this compound: "CN(CCN(C)c1ccc(C(=N)N)cc1)c1ccc(C(=N)N)cc1"
Result block: F

Query block: Please state the recorded outcome for this compound: COc1cc(NC(C)CCCNC(=O)CCC(=O)NCCCNCCCCCCCCNCCCNC(=O)CCC(=O)NCCCC(C)Nc2cc(OC)cc3cccnc23)c2ncccc2c1 (configuration not stated)
Result block: F

Query block: Please state the recorded outcome for this compound: COc1ccc(-c2nc(S(=O)(=O)c3ccccc3)c(S(=O)CC(=O)N3CCC(C)CC3)o2)cc1 (configuration not stated)
Result block: F

Query block: Please state the recorded outcome for this compound: "COc1cc(-c2n/c(=C\c3c(O)[nH]c4ccc(Cl)cc34)cc3c2=Nc2ccccc2-3)ccc1F"
Result block: T

Query block: Please state the recorded outcome for this compound: "Nc1n[nH]c2cccc(C#Cc3cccc(C(=O)Nc4cc(CN5CCOCC5)cc(C(F)(F)F)c4)c3)c12"
Result block: F

Query block: Please state the recorded outcome for this compound: "CCN1Cc2nc3sc(C)c(C)c3c(=O)n2C=C1C"
Result block: F
